The measurements presented in this section are drawn from patent US20100298225A1.

Molecular target: Recombinant Cx43CT (carboxyl terminal domain of connexin43, sequence 255-382 of rCx43 preceded by GPLG) (rat, UniProt P08050)
Sequence (P08050 other isoform, or with tags, fused parts or gaps limits assumed): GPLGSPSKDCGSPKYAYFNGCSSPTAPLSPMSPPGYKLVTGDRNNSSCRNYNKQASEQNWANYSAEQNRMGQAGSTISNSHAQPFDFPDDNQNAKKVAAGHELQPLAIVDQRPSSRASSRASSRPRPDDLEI
Experiment: SPR, Cx43CT immobilised, peptide at 25 uM, response normalised on Mw
Experimental: Biophys. […] Commun. 8(4-6):225-229 (2001); Lang et al., “Surface Plasmon Resonance as a Method to Study the Kinetics and Amplitude of Protein-protein Binding,” in PRACTICAL METHODS IN CARDIOVASCULAR […] […] Specific peptides were presented and, when feasible, dissociation constants (KD) were calculated from the time course of binding and unbinding of the ligand, using a 1:1 (Langmuir) association and dissociation kinetic model (Biacore software package). […]
In this section, each of the binders is paired with its reported SPR normalised on Mw at 25 uM.

Worked examples follow.
[[record]]
binder = "Ac-RRNYSAVPFYSHSRRNY-NH2 [Compound 2506]"
value_reported = "2.3 (SPRrespons*100)/Mw"

[[record]]
binder = "Ac-RRNYSHSRRNY-NH2 [Compound 2507]"
value_reported = "2.7 (SPRrespons*100)/Mw"

[[record]]
binder = "Ac-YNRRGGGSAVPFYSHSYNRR-NH2 [Compound 2496]"
value_reported = "2.8 (SPRrespons*100)/Mw"

[[record]]
binder = "Ac-RRNYGGSAVPFYSHRRNY-NH2 [Compound 2510]"
value_reported = "1.8 (SPRrespons*100)/Mw"

[[record]]
binder = "Ac-RRNYGGGSAVPFYRRNY-NH2 [Compound 2508]"
value_reported = "1.5 (SPRrespons*100)/Mw"


q: Would you mind telling me what SPR normalised on Mw at 25 uM value was observed for Ac-RRNYVPRRNY-NH2 [Compound 2512] ?
a: 1 (SPRrespons*100)/Mw

q: One more binder: Ac-RRNYAVPFRRNY-NH2 [Compound 2511]
a: 1 (SPRrespons*100)/Mw

q: // same read-out, input: Ac-RRNYRRNY-NH2 [Compound 2497]
a: 2.4 (SPRrespons*100)/Mw

q: Entry Ac-RRNYGGGRRNY-NH2 [Compound 2509] please
a: 1.5 (SPRrespons*100)/Mw
